Biological target: c-Met (Homo sapiens)
Sequence (P08581 25-1390): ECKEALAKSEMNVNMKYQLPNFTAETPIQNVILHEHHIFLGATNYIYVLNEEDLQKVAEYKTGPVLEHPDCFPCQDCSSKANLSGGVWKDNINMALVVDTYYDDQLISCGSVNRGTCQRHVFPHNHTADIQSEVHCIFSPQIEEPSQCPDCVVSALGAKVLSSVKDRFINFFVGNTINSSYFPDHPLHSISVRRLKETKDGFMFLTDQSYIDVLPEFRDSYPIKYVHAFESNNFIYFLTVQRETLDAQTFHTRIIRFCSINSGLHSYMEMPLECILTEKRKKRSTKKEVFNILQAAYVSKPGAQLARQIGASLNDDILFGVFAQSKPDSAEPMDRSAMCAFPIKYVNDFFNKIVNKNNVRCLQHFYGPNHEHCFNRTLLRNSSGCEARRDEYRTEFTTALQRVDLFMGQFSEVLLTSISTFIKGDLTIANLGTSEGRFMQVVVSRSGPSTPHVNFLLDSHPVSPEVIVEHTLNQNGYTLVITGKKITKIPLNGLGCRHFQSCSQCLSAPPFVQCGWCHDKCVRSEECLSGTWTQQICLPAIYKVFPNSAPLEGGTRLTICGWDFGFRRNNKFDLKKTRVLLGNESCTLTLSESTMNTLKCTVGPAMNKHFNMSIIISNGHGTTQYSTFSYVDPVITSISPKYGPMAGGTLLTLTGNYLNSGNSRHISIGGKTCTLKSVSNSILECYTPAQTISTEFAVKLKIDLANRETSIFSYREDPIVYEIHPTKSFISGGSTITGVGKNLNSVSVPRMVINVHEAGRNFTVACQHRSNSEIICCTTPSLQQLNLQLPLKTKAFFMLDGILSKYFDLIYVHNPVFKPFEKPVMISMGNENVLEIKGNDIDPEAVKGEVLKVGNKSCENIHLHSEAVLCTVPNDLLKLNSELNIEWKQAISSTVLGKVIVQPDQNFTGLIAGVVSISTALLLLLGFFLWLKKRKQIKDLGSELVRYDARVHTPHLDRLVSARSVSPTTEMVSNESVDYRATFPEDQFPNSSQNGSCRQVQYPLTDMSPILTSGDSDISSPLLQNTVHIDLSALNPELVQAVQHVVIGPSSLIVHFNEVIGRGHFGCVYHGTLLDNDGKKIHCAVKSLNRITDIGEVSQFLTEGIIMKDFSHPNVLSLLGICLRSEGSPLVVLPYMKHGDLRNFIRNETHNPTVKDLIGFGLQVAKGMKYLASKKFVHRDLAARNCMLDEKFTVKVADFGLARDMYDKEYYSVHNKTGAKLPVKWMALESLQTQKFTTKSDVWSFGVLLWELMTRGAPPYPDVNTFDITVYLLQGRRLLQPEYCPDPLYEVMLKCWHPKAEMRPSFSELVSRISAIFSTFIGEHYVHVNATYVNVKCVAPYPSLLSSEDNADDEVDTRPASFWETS
property.label: pIC50
Note on units: pIC50 is unitless, being -log10 of a concentration expressed in mol/L.

Bench note, c-Met (Homo sapiens): CN1CCN(c2ccc(C(=O)Nc3n[nH]c4ncc(S(=O)(=O)c5cccc(F)c5)cc34)cc2)CC1 [10g] , pIC50 reads 5.42

* * *

Molecular target: ALK-T1151-L1152insT (Homo sapiens, UniProt Q9UM73, INS1151T)
Sequence (Q9UM73 with tags, fused parts or gaps INS1151T limits assumed): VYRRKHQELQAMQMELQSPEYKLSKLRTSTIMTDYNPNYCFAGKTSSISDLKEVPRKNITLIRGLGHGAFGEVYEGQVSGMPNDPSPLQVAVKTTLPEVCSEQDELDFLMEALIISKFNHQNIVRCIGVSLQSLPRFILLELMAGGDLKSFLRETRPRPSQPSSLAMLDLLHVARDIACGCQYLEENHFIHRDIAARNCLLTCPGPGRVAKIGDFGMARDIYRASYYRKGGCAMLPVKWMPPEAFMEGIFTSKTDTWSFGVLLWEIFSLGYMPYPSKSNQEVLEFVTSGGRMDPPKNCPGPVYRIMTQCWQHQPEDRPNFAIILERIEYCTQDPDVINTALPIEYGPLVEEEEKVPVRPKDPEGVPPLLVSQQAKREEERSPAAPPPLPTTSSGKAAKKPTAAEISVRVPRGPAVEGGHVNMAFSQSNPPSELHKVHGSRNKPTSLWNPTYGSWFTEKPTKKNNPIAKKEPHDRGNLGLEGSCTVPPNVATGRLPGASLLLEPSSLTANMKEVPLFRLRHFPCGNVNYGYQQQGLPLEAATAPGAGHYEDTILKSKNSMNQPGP
Assay: Radiometric biochemical kinase assay, ALK-T1151-L1152insT
property.label: IC50 (nM)
Number in nM, nothing else.

Record summary for CN1CCN(c2ccc(C(=O)Nc3n[nH]c4ncc(S(=O)(=O)c5cccc(F)c5)cc34)cc2)CC1 [10g] : reported IC50 = 6.19

* * *

Molecular target: ALK-wt (Homo sapiens, UniProt Q9UM73)
Sequence (Q9UM73 19-1620): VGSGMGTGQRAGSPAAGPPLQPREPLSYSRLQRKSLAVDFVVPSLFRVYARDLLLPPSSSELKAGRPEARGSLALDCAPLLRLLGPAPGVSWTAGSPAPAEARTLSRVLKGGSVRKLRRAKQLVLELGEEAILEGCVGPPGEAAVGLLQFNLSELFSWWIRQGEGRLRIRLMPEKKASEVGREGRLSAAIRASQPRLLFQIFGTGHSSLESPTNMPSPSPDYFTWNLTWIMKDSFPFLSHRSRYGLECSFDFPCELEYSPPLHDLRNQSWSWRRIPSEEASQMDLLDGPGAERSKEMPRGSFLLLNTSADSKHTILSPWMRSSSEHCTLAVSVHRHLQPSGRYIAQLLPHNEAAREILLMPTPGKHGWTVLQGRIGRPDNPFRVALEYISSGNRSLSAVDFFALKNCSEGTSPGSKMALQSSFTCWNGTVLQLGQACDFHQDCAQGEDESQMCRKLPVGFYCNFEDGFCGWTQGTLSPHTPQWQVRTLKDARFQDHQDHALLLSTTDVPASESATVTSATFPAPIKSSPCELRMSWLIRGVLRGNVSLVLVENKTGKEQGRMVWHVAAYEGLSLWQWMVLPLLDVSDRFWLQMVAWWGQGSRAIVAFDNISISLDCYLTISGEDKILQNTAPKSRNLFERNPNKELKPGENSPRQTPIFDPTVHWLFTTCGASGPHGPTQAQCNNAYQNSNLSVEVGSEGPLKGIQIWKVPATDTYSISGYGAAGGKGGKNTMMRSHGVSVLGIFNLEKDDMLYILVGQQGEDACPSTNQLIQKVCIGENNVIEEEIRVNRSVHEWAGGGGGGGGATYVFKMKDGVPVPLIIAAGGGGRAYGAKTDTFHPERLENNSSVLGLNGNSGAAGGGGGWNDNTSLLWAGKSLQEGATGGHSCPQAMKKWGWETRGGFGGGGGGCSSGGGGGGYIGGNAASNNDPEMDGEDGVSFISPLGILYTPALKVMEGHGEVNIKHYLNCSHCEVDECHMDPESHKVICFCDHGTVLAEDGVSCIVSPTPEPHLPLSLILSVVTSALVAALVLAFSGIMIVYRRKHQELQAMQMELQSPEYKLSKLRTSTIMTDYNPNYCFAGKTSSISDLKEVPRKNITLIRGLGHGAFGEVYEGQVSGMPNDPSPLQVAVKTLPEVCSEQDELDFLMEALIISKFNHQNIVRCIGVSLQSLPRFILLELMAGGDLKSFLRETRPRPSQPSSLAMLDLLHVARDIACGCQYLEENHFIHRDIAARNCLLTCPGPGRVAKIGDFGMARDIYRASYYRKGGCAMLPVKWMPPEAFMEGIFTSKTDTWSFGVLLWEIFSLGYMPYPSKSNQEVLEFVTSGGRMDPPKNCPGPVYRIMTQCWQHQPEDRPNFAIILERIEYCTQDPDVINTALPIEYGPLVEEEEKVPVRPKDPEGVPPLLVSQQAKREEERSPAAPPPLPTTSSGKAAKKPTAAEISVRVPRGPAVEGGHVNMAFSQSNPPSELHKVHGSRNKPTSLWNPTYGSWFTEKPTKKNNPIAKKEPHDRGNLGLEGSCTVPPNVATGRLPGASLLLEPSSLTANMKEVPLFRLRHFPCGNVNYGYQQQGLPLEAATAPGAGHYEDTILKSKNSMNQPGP
Experiment: Radiometric biochemical kinase assay, ALK-wt
Details: IC50 ALK-wt [ATP](50 μM), 50 μM ATP
property.label: pIC50
Note on units: pIC50 is unitless, being -log10 of a concentration expressed in mol/L.

Record summary for CN1CCN(c2ccc(C(=O)Nc3n[nH]c4ncc(S(=O)(=O)c5cccc(F)c5)cc34)cc2)CC1 [10g] : reported pIC50 = 7.76

* * *

Target: Lyn (Homo sapiens, UniProt P07948)
Sequence (P07948 whole entry): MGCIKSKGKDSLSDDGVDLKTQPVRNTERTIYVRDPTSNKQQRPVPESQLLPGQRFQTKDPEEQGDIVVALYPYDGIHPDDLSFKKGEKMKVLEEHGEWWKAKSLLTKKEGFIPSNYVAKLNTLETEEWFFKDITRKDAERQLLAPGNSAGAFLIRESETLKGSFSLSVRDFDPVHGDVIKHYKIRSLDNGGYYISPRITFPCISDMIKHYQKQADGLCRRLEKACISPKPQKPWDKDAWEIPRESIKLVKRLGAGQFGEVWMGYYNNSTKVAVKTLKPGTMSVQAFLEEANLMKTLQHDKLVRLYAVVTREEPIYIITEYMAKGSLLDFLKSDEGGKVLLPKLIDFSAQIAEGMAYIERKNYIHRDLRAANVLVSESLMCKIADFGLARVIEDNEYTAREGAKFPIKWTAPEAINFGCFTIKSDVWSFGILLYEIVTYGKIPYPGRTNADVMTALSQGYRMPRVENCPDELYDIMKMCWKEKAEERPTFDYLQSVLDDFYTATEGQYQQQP
Assay: Biochemical kinase assay, Lyn
Experimental: Biochemical kinase assay was performed by methods previously reported. Kinase reactions of all test compounds except 10g were carried out at 10 µM ATP. Kinase reaction of 10g was performed at three different concentrations of ATP (10/50/100 µM).
property.label: IC50 (nM)
Number in nM, nothing else.

Record summary for CN1CCN(c2ccc(C(=O)Nc3n[nH]c4ncc(S(=O)(=O)c5cccc(F)c5)cc34)cc2)CC1 [10g] : reported IC50 = 33

* * *

Property: IC50; scope: individual compounds
Target: ALK-wt (Homo sapiens)
Experiment: Radiometric biochemical kinase assay, ALK-wt
Settings: radiometric kinase assay, 10 µM ATP; read-out: IC50 ALK-wt
Number in nM, nothing else.

Example cases with answers are listed next.
compound: CN(C)c1ccc(C(=O)Nc2n[nH]c3ncc(S(=O)(=O)c4cccc(F)c4)cc23)cc1 [10e]
units: nM
IC50: 7.3

compound: COc1ccc(C(=O)Nc2n[nH]c3ncc(S(=O)(=O)c4cccc(F)c4)cc23)cc1 [10d]
units: nM
IC50: 69

--- query ---
Record summary for N#Cc1ccc(C(=O)Nc2n[nH]c3ncc(S(=O)(=O)c4cccc(F)c4)cc23)cc1 [10a] : reported IC50 = 453
